System: HepG2 (liver cancer)
Experiment: MTT antiproliferative assay, HepG2
Assay type: cell-based
Conditions: Homo sapiens, HepG2, 10 μM, 48 or 72 h, read-out: inhibition of cell growth, HepG2
Experimental: The antiproliferative activity of a test compound was determined in cell lines: MDA-MB-231 (breast cancer), HepG2 (liver cancer), SW620 (colon cancer), A375 (malignant melanoma), A431 (epidermoid carcinoma), A549 (lung adenocarcinoma), and HeLa (ovarian cancer). […] Briefly cells were seeded in a 96 well plate at a density of 2,000-5,000 cells/well. […] The plate was shaken for 15-20 min and the absorbance value of each well was determined using a multi-well plate reader at 490 nm. […]
Quick list: inhibition at 10 µM per entry.

Give the measured inhibition at 10 µM of COC(=O)[C@]1(C)CC[C@]2(C)CC[C@]3(C)C4=CC=C5C(=CC(=O)/C(=C/C#N)C5(C)O)[C@]4(C)CC[C@@]3(C)[C@@H]2C1 (stereo partly drawn) [Compound A34] . ≥ 80%

Then this compound: CO[C@]1(C)C(=O)C2(C=C3C1=CC=C1[C@@]3(C)CC[C@@]3(C)[C@@H]4C[C@](C)(C(=O)O)CC[C@]4(C)CC[C@]13C)OCCO2 [Compound A54] < 30%

Then this compound: CO[C@@]1(C)C2=CC=C3[C@@](C)(CC[C@@]4(C)[C@@H]5C[C@](C)(C(=O)O)CC[C@]5(C)CC[C@]34C)C2=CC(=O)/C1=C\C#N [Compound A30] ≥ 80%

Then this compound: CO[C@@]1(C)C2CCC3[C@@](C)(CC[C@@]4(C)[C@@H]5C[C@](C)(C(=O)O)CC[C@]5(C)CC[C@]34C)C2=CC(=O)[C@@H]1O (stereo partly drawn) [Compound A21] < 30%

Then this compound: COC(=O)[C@]1(C)CC[C@]2(C)CC[C@]3(C)C4=CC=C5C(=CC(=O)/C(=C\C#N)C5(C)O)[C@]4(C)CC[C@@]3(C)[C@@H]2C1 (stereo partly drawn) [Compound A33] ≥ 80%

Next:
Give the measured inhibition at 10 µM of CCO[C@]1(C)C(=O)C(=O)C=C2C1=CC=C1[C@@]2(C)CC[C@@]2(C)[C@@H]3C[C@](C)(C(=O)O)CC[C@]3(C)CC[C@]12C [Compound A28] . 50 to 80%

Then this compound: CO[C@@]1(C)C2=CC=C3[C@@](C)(CC[C@@]4(C)[C@@H]5C[C@](C)(C(=O)O)CC[C@]5(C)CC[C@]34C)C2=CC(O)C1O (stereo partly drawn) [Compound A29] < 30%

Then this compound: COC(=O)[C@]1(C)CC[C@]2(C)CC[C@]3(C)C4=CC=C5C(=CC(=O)C(=O)[C@@]5(C)OC)[C@]4(C)CC[C@@]3(C)[C@@H]2C1 [Compound A5] ≥ 80%

Then this compound: CO[C@@]1(C)C2=CC=C3[C@@](C)(CC[C@@]4(C)[C@@H]5C[C@](C)(C(N)=O)CC[C@]5(C)CC[C@]34C)C2=CC(=O)/C1=C\C#N [Compound A59] ≥ 80%

Then this compound: CO[C@@]1(C)C2=CC=C3[C@@](C)(CC[C@@]4(C)[C@@H]5C[C@](C)(C(=O)N6CCOCC6)CC[C@]5(C)CC[C@]34C)C2=CC(=O)[C@@H]1O [Compound A56] ≥ 80%

Then this compound: CC12OCCOC1(O)C(=O)C=C1C2=CC=C2[C@@]1(C)CC[C@@]1(C)[C@@H]3C[C@](C)(C(=O)O)CC[C@]3(C)CC[C@]21C (stereo partly drawn) [Compound A43] < 30%

Then this compound: CC(=O)OC1(C)C(=O)C(=O)C=C2C1=CC=C1[C@@]2(C)CC[C@@]2(C)[C@@H]3C[C@](C)(C(=O)O)CC[C@]3(C)CC[C@]12C (stereo partly drawn) [Compound A3] < 30%

Then this compound: CO[C@]1(C)C(=O)C(=O)C=C2C1=CC=C1[C@@]2(C)CC[C@@]2(C)[C@@H]3C[C@](C)(C(=O)F)CC[C@]3(C)CC[C@]12C [Compound A8] ≥ 80%

Then this compound: CO[C@@]1(C)C2=CC=C3[C@@](C)(CC[C@@]4(C)[C@@H]5C[C@](C)(C(=O)OCc6ccccc6)CC[C@]5(C)CC[C@]34C)C2=CC(=O)[C@@H]1O [Compound A16] ≥ 80%

Then this compound: CCCC(=O)O[C@H]1C(O)C=C2C(=CC=C3[C@@]2(C)CC[C@@]2(C)[C@@H]4C[C@](C)(C(=O)OC)CC[C@]4(C)CC[C@]32C)[C@]1(C)OC (stereo partly drawn) [Compound A25] < 30%

Origin of the recorded values: patent US12570687B2
